Reference source: patent US4032654A

Experiment: physchem
Settings: 70/30 ch3oh/h2o, Solubility, Oxamyl alone in solvent, alone; -6° C.
Method: Methomyl and oxamyl were added to various methanol:water solvent systems ranging from 100 wt. % CH3 OH to 30 wt. % CH3 OH:70 wt. % H2 O. […] The samples were equilibrated at -6° C. in a constant temperature freezer after which they were seeded with methomyl and oxamyl crystals to ensure crystallization of both materials. […] This solution was evaluated by thin layer chromatography (TLC) to ensure the solids consisted of both methomyl and oxamyl. […]
parameter: solubility
Please make sure the unit comes right after the number.

// recorded solubility for CNC(=O)ON=C(SC)C(=O)N(C)C [Oxamyl] : 423 mg/mL
